- Test system: hLiMTs
- Assay Info: Combined HCI (HCS) and cellular ATP 3D assay in hLiMTs
- Measurement Parameters: hLiMTs; all endpoints; Cmax max used

| Compound | hLiMTs Cmax max All |
| --- | --- |
| Cc1ccc(C(=O)c2cc(O)c(O)c([N+](=O)[O-])c2)cc1 [tolcapone, reference compound] | +ve |
| Cc1ccc(N(CC2=NCCN2)c2cccc(O)c2)cc1 [phentolamine] | -ve |
| COc1ccc2c(c1)c(CC(=O)O)c(C)n2C(=O)c1ccc(Cl)cc1 [indomethacin] | +ve |
| CC(C)C(=O)Nc1ccc([N+](=O)[O-])c(C(F)(F)F)c1 [flutamide, reference compound] | +ve |
